Assay: Single dose study: plasma pharmacokinetics of eplerenone, open lactone ring form, spironolactone
Settings: male, human, plasma, po, 50 mg
Procedure: The pharmacokinetics, safety and antialdosterone activity of single 10, 50, 100, 300 and 1000 mg oral doses of eplerenone were evaluated in a single-center, randomized, double-blind, placebo-controlled study. The study employed seven parallel dose groups of eight healthy male humans. The eplerenone capsules administered corresponded to the capsules (or combinations of the capsules) disclosed in Examples 4, 5, 7 and 8 above. The placebo was a conventional capsule containing lactose. […]
# concentration at 1 h listing for each entry below

COMPOUND	concentration at 1 h [ng/mL]
CC(=O)S[C@@H]1CC2=CC(=O)CC[C@]2(C)[C@H]2CC[C@@]3(C)[C@@H](CC[C@@]34CCC(=O)O4)[C@H]12 [spironolactone, Spironolactone, reference compound]	23.6
COC(=O)C1CC2=CC(=O)CCC2(C)C23OC2CC2(C)C(CC[C@@]24CCC(=O)O4)C13 (some centres unmarked)	721
